Origin of the recorded values: patent US20030073681A1

target_or_system: Human 5-HT Receptor (Homo sapiens)
Sequence (P31645 whole entry): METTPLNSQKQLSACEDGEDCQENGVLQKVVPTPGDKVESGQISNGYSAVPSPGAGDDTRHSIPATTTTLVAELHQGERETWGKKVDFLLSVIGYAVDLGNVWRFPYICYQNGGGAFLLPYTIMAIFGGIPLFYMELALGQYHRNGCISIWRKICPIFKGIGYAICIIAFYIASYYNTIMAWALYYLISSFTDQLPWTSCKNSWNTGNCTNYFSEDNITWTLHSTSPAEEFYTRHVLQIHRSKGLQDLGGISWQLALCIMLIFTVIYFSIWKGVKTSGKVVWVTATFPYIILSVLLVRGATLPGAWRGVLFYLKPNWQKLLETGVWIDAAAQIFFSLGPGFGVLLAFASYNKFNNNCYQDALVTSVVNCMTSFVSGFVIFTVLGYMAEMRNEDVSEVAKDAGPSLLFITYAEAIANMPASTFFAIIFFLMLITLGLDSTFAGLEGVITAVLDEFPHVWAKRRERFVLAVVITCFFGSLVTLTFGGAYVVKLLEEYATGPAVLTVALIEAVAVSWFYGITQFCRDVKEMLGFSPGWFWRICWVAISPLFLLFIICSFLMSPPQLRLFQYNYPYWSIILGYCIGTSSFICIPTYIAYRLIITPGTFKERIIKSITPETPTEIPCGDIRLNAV
measurement_notes: Functional activity for serotonin uptake inhibition in human HEK-293 cell lines
Format: cell-based
Design: expressed in transfected cells; host or cells: HEK-293
measurement_parameters: read-out: Functional Assays (EC50, nM) Human 5-HT Receptor
Catalogue of EC50 readings, one per entry.

Use these answered entries as a reference point.
compound: O[C@H](CN1CCCCC1CCOc1ccc(C(F)(F)F)cc1)C1(c2ccc(Cl)cc2)CCC1 (stereo partly drawn)
EC50: < 100 nM
//
compound: CN1CCN(CC(O)c2ccc(Cl)cc2)C(CCc2ccc(C(F)(F)F)cc2)C1 (stereo not drawn)
EC50: < 1000 nM

In the following, a different compound is considered.
Provide the documented EC50 with Human 5-HT Receptor (Homo sapiens) as the system for O=C(CCCN1CCCCC1CCOc1ccc(C(F)(F)F)cc1)c1ccc(F)cc1 (stereo not drawn) < 1000 nM

---

target_or_system: Human 5-HT Receptor (Homo sapiens)
measurement_notes: Displacement of serotonin ligands in vitro (uptake profile)
Assay type: binding
measure_name: IC50

compound: CC(CN1CCCCC1CCOc1ccc(C(F)(F)F)cc1)C(O)c1ccc(Cl)cc1 (centres unmarked)
IC50: < 1000 nM

Checklist item: IC50 tested on Human 5-HT Receptor (Homo sapiens), entry O[C@H](CN1CCCCC1CCOc1ccc(C(F)(F)F)cc1)C1(c2ccc(Cl)cc2)CCC1 (some centres unmarked) , value? < 1000 nM

Param readout = IC50; param system = Human 5-HT Receptor (Homo sapiens); param query = CC(CN1CCCCC1CCOc1ccc(C(F)(F)F)cc1)C(=O)c1ccc(Cl)cc1 (centres unmarked) ; response: value > 1000 nM

Form: Entry = FC(F)(F)c1ccc(OCCC2CCCCN2CC2(c3ccc(Cl)cc3)CCC2)cc1 (centres unmarked) | System = Human 5-HT Receptor (Homo sapiens) | IC50 = ____ > 1000 nM

For the record OC(CN1CCCCC1CCOc1ccc(C(F)(F)F)cc1)C1(c2ccc(Cl)c(Cl)c2)CCC1 (centres unmarked) , what value of IC50 is listed for Human 5-HT Receptor (Homo sapiens)? < 1000 nM

---

Item-by-item account of EC50
target_or_system: Human DA Receptor (Homo sapiens, UniProt Q01959)
Sequence (Q01959 whole entry): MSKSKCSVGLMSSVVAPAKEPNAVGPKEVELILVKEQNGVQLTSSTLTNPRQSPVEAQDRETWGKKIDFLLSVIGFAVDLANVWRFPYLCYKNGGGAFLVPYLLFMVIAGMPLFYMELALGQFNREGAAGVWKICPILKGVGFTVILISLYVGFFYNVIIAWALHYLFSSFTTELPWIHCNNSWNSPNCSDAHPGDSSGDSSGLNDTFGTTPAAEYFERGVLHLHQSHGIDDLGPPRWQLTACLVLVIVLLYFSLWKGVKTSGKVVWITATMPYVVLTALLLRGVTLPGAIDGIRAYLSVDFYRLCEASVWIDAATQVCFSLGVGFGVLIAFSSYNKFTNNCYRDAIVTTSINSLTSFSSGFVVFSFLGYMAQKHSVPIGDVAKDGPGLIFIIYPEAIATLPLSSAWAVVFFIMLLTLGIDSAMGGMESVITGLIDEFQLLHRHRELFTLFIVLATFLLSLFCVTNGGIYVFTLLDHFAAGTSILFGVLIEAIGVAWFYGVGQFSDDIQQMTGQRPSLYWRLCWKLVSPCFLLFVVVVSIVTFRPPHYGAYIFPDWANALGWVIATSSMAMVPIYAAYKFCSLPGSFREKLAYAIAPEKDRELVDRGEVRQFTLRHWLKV
measurement_notes: Dopamine functional activity in hDAT cell line
Format: cell-based
Set-up: expressed in transfected cells
measurement_parameters: read-out: Functional Assays (EC50, nM) Human DA Receptor

molecule: O=C(CCCN1CCCCC1CCOc1ccc(C(F)(F)F)cc1)c1ccc(F)cc1 (stereo not drawn)
EC50: < 1000 nM
//
molecule: CN1CCN(CC(O)c2ccc(Cl)cc2)C(CCc2ccc(C(F)(F)F)cc2)C1 (stereo not drawn)
EC50: > 1000 nM

With those in mind, consider the next molecule.
Request the reported EC50 associated with O[C@H](CN1CCCCC1CCOc1ccc(C(F)(F)F)cc1)C1(c2ccc(Cl)cc2)CCC1 (stereo partly drawn) < 100 nM

---

The compounds listed here are annotated with their pIC50.
target_or_system: Human DA Receptor (Homo sapiens, UniProt Q01959)
measurement_notes: Displacement of dopamine ligands in vitro (uptake profile)
pIC50: −log10 of the molar value.

compound: O[C@H](CN1CCCCC1CCOc1ccc(C(F)(F)F)cc1)C1(c2ccc(Cl)cc2)CCC1 (some centres unmarked) [Compound 9]
target_or_system: Human DA Receptor (Homo sapiens, UniProt Q01959)
pIC50: > 8.00

compound: CC(CN1CCCCC1CCOc1ccc(C(F)(F)F)cc1)C(O)c1ccc(Cl)cc1 (centres unmarked) [Compound 14]
target_or_system: Human DA Receptor (Homo sapiens, UniProt Q01959)
pIC50: > 7.00

compound: FC(F)(F)c1ccc(OCCC2CCCCN2CC2(c3ccc(Cl)cc3)CCC2)cc1 (centres unmarked) [Compound 7]
target_or_system: Human DA Receptor (Homo sapiens, UniProt Q01959)
pIC50: > 7.00

compound: CC(CN1CCCCC1CCOc1ccc(C(F)(F)F)cc1)C(=O)c1ccc(Cl)cc1 (centres unmarked) [Compound 13]
target_or_system: Human DA Receptor (Homo sapiens, UniProt Q01959)
pIC50: < 6.00

Pending compound:
Which pIC50 is reported for this compound? OC(CN1CCCCC1CCOc1ccc(C(F)(F)F)cc1)C1(c2ccc(Cl)c(Cl)c2)CCC1 (centres unmarked) [Compound 18] > 8.00

---

target_or_system: Human NE Receptor (Homo sapiens)
Sequence (P23975 whole entry): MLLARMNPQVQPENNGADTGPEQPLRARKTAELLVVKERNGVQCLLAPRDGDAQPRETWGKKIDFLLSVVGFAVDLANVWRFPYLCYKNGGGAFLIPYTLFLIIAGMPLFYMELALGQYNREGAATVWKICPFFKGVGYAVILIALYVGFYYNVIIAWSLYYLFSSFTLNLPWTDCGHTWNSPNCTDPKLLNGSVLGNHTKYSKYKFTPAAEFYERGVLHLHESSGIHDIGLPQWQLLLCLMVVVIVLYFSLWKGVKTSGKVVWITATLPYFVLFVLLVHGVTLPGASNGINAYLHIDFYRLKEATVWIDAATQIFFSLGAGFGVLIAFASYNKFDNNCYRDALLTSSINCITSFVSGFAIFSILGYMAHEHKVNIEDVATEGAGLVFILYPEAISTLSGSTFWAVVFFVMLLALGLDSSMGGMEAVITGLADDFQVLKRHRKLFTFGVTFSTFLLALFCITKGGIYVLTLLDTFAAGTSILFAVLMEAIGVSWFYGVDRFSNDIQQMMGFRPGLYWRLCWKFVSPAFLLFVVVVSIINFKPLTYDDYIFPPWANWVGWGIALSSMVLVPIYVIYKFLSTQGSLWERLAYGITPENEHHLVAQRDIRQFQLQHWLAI
measurement_notes: Displacement of norephinephrine ligands in vitro (uptake profile)
Assay type: binding
// values below are reported IC50

Record excerpt, results attached:
molecule: CC(CN1CCCCC1CCOc1ccc(C(F)(F)F)cc1)C(O)c1ccc(Cl)cc1 (centres unmarked) [Compound 14]
IC50: < 1000 nM
//
molecule: O[C@H](CN1CCCCC1CCOc1ccc(C(F)(F)F)cc1)C1(c2ccc(Cl)cc2)CCC1 (some centres unmarked) [Compound 9]
IC50: < 100 nM

What measured IC50 goes with OC(CN1CCCCC1CCOc1ccc(C(F)(F)F)cc1)C1(c2ccc(Cl)c(Cl)c2)CCC1 (centres unmarked) [Compound 18] ? < 100 nM

Quick check: IC50 of FC(F)(F)c1ccc(OCCC2CCCCN2CC2(c3ccc(Cl)cc3)CCC2)cc1 (centres unmarked) [Compound 7] ? < 1000 nM

Which IC50 is reported for this molecule? CC(CN1CCCCC1CCOc1ccc(C(F)(F)F)cc1)C(=O)c1ccc(Cl)cc1 (centres unmarked) [Compound 13] > 1000 nM
